This collection of values is drawn from patent US9624216B2.

target_entity: IDH1-R132H recombinant protein (Homo sapiens, UniProt O75874, R132H)
Sequence (O75874 whole entry R132H): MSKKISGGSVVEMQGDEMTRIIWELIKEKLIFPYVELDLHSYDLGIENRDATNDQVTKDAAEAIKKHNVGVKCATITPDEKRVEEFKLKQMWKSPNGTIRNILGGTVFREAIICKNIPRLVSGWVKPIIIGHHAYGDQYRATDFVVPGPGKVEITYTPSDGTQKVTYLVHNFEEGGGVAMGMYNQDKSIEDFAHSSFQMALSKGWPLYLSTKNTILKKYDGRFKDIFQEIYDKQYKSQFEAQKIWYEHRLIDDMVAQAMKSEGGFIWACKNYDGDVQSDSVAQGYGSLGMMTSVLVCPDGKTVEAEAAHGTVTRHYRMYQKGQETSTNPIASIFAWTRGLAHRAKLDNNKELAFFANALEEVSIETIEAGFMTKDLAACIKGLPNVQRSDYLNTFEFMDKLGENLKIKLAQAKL
assay_comment: IDH1-R132H enzymatic assay (NADPH consumption, diaphorase/resazurin readout)
run_conditions: 30 nM IDH1-R132H, inhibition of NADPH consumption; read-out: Enzyme IDH1 R132H IC50
assay_readout: IC50

Note to self: IC50 recorded for O=c1[nH]c2ccc(Cl)cc2cc1CNc1nc(-c2ccc(F)c(F)c2)cs1 was 1 to 10 µM

Measured IC50 of CC(Nc1ncc(C#N)s1)c1cc2cc(Cl)c(OCc3ccccn3)cc2[nH]c1=O (racemic) : < 0.1 µM

IC50 reported for this compound CC(Nc1ncc(C#N)s1)c1cc2cc(Cl)cnc2[nH]c1=O (centres unmarked) : 0.1 to 1 µM

// recorded IC50 for C[C@H](Nc1nsc(N2CCOC2=O)n1)c1cc2cc(Cl)ccc2[nH]c1=O : > 10 µM

For this compound ( COc1ccc2[nH]c(=O)c(CNc3nc(C)c(C)s3)cc2c1 ), measured IC50 is > 10 µM

Query C[C@H](Nc1ncc(C#N)s1)c1cc2cc(Cl)ccc2[nH]c1=O yields IC50 of < 0.1 µM

The compound CCc1c(C)sc(NCc2cc3cc(Cl)ccc3[nH]c2=O)c1C#N showed IC50 equal to > 10 µM

IC50 reading for C[C@@H](Nc1ncc(C#N)s1)c1cc2cc(Cl)c(OCc3ccccn3)cc2[nH]c1=O : 0.1 to 1 µM

====

target_entity: IDH1-R132C recombinant protein (Homo sapiens, UniProt O75874, R132C)
Sequence (O75874 whole entry R132C): as the sequence (O75874 whole entry R132H) above, with H132C counted along it
assay_comment: IDH1-R132C enzymatic assay (NADPH consumption, diaphorase/resazurin readout)
run_conditions: 10 nM IDH1-R132C, inhibition of NADPH consumption; read-out: Enzyme IDH1 R132C IC50
pIC50: −log10 of the molar value.
Give measured pIC50 for each item. Keep answers brief.

Form: compound = Cc1nc(N[C@@H](C)c2cc3cc(Cl)ccc3[nH]c2=O)sc1C#N ; pIC50 = 6.00 to 7.00

pIC50 measured on CC(Nc1ncc(C#N)s1)c1cc2cc(Cl)c(OCc3ccccn3)cc2[nH]c1=O (racemic) = 6.00 to 7.00

The value of pIC50 measured for the compound C[C@H](Nc1ncc(C(N)=O)s1)c1cc2cc(Cl)ccc2[nH]c1=O turned out to be 5.00 to 6.00

pIC50 measured on C[C@H](Nc1ncc(C#N)s1)c1cc2cc(Cl)c(OCc3ccccn3)cc2[nH]c1=O = > 7.00

Given item C[C@@H](Nc1ncc(C#N)s1)c1cc2cc(Cl)c(OCc3ccccn3)cc2[nH]c1=O , the value recorded as its pIC50 is 5.00 to 6.00

For reference, reported pIC50 for C[C@H](Nc1ncc(C#N)s1)c1cc2cc(Cl)ccc2[nH]c1=O stands at 6.00 to 7.00

// sample COc1cc2[nH]c(=O)c(C(C)Nc3ncc(C#N)s3)cc2cc1Cl (stereo not drawn) , its pIC50 was 6.00 to 7.00

Per the record, Cc1nc(N[C@@H](C)c2cc3cc(Cl)ccc3[nH]c2=O)sc1C(N)=O has pIC50 of 6.00 to 7.00

Looking up CC(=O)Nc1cnc(N[C@@H](C)c2cc3cc(Cl)ccc3[nH]c2=O)s1 , I found its pIC50 recorded as < 5.00
